// values below are reported IC50
# test-system: dihydrolipoamide acyltransferase (DlaT) (Mycobacterium tuberculosis, UniProt P9WIS7)
# Sequence (P9WIS7 whole entry): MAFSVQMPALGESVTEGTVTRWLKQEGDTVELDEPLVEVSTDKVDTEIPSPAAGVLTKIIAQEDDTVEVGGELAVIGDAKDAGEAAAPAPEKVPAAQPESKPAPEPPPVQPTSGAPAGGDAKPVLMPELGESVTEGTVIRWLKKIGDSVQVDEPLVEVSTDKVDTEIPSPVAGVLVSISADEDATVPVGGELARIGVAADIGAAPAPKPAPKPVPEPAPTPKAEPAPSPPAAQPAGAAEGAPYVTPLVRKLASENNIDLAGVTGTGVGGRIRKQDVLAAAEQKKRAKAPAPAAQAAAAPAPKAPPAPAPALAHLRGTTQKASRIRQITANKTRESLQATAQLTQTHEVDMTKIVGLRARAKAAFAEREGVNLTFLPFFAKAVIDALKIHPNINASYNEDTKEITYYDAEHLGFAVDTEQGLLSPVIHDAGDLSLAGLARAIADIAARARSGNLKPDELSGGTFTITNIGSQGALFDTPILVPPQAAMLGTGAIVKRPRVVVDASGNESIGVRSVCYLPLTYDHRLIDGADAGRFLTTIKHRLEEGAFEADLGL
# assay-explanation: DlaT inhibition (Dlat IC50); DTNB peroxidase assay with Lpd, DlaT and AhpD
# Format: biochemical
# test-context: Dlat IC50 category, Table 14, Compounds N1 to N3

Task: Requested read-out: IC50. Entry: O=C(O)c1cccc(N2C(=O)C(=Cc3ccc(Cc4ccccc4Cl)o3)SC2=S)c1
Result: < 10 µM

Task: Requested read-out: IC50. Entry: COc1ccc(C(=O)O)cc1N1C(=O)C(=Cc2ccc(Cc3ccccc3Cl)o2)SC1=S
Result: 11 to 40 µM

Task: Requested read-out: IC50. Entry: O=C(O)c1cc(N2C(=O)C(=Cc3ccc(Cc4ccccc4Cl)o3)SC2=S)ccc1O
Result: < 10 µM
